Catalogue of IC50 readings, one per entry.
system: A549; experiment: Cytotoxicity against human A549 cells after 2 days by MTT assay; assay type: functional, cell-based; conditions: Homo sapiens, A549, 48 h

Look over these answered cases.
[[record]]
smiles_code = "COc1cc2c3cc1Oc1c(OC)c(OC)cc4c1[C@@H](Cc1ccc(O[C@@H]5O[C@H](COC(C)=O)[C@H](OC(C)=O)[C@H](OC(C)=O)[C@H]5OC(C)=O)c(c1)Oc1ccc(cc1)C[C@@H]3N(C)CC2)N(C)CC4"
measured_property = "IC50"
obs_value = "43 µM"

[[record]]
smiles_code = "COc1cc2c3cc1Oc1c(OC)c(OC)cc4c1[C@@H](Cc1ccc(O[C@@H]5O[C@H](COC(C)=O)[C@@H](OC(C)=O)[C@H](OC(C)=O)[C@H]5OC(C)=O)c(c1)Oc1ccc(cc1)C[C@@H]3N(C)CC2)N(C)CC4"
measured_property = "IC50"
obs_value = "29.5 µM"

[[record]]
smiles_code = "COc1cc2c3cc1Oc1c(OC)c(OC)cc4c1[C@@H](Cc1ccc(O[C@@H]5O[C@H](CO)[C@@H](O[C@@H]6O[C@H](CO)[C@@H](O)[C@H](O)[C@H]6O)[C@H](O)[C@H]5O)c(c1)Oc1ccc(cc1)C[C@@H]3N(C)CC2)N(C)CC4"
measured_property = "IC50"
obs_value = "≥ 50 µM"

[[record]]
smiles_code = "COc1cc2c3cc1Oc1c(OC)c(OC)cc4c1[C@@H](Cc1ccc(O[C@@H]5O[C@H](COC(C)=O)[C@@H](O[C@@H]6O[C@H](COC(C)=O)[C@H](OC(C)=O)[C@H](OC(C)=O)[C@H]6OC(C)=O)[C@H](OC(C)=O)[C@H]5OC(C)=O)c(c1)Oc1ccc(cc1)C[C@@H]3N(C)CC2)N(C)CC4"
measured_property = "IC50"
obs_value = "≥ 50 µM"

[[record]]
smiles_code = "COc1cc2c3cc1Oc1c(OC)c(OC)cc4c1[C@@H](Cc1ccc(O[C@@H]5OC[C@@H](OC(C)=O)[C@H](OC(C)=O)[C@H]5OC(C)=O)c(c1)Oc1ccc(cc1)C[C@@H]3N(C)CC2)N(C)CC4"
measured_property = "IC50"
obs_value = "≥ 50 µM"


# input Check the records and state IC50 for "COc1cc2c3cc1Oc1c(OC)c(OC)cc4c1[C@@H](Cc1ccc(O)c(c1)Oc1ccc(cc1)C[C@@H]3N(C)CC2)N(C)CC4"
# output 39.7 µM

# input Check the records and state IC50 for "COc1cc2c3cc1Oc1c(OC)c(OC)cc4c1[C@@H](Cc1ccc(O[C@H]5O[C@@H](COC(C)=O)[C@H](OC(C)=O)[C@@H](OC(C)=O)[C@@H]5OC(C)=O)c(c1)Oc1ccc(cc1)C[C@@H]3N(C)CC2)N(C)CC4"
# output ≥ 50 µM

# input Check the records and state IC50 for "COc1cc2c3cc1Oc1c(OC)c(OC)cc4c1[C@@H](Cc1ccc(O[C@@H]5O[C@H](COC(C)=O)[C@@H](O[C@@H]6O[C@H](COC(C)=O)[C@@H](OC(C)=O)[C@H](OC(C)=O)[C@H]6OC(C)=O)[C@H](OC(C)=O)[C@H]5OC(C)=O)c(c1)Oc1ccc(cc1)C[C@@H]3N(C)CC2)N(C)CC4"
# output 27.8 µM

Reference source: ChEMBL document CHEMBL2040730
